assayOverview: differential killing of epithelial or mesenchymal cells, primary screen, imaging, PC-3E GFP, TEM4-18 mCherry, co-culture (AID 1345086);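 note: normalised mesenchymal count divided by normalised epithelial count so high means epithelial killing; cells exposed to compound for 72 h before imaging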
conditionDetails: imaging cell counts, at 1 µM, actives lie on both sides, counts scaled to control wells, 1 = unselective
Calls of active or inactive are those of the source.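 Rule for the calls: active = compounds killing one labelled cell type while sparing the other, by normalised counts and ratio limits, not self-fluorescent; inactive = the rest.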
The following molecules are listed with their measured red/green cell ratio (normalised) values.
measuredMetric: red/green cell ratio (normalised)

{"molecule": "Nc1nc(=S)c2ncn(C3O[C@H](CO)[C@@H](O)[C@H]3O)c2[nH]1 (stereo not given in full)", "measuredMetric": "red/green cell ratio (normalised)", "measuredValue": "0.83 (inactive)"}
{"molecule": "C=C[C@@](C)(O)CCC1C(=C)C[C@H](OC(C)=O)C2C(C)(C)CCCC12C (stereo not given in full)", "measuredMetric": "red/green cell ratio (normalised)", "measuredValue": "1.05 (inactive)"}
{"molecule": "CC12CCC3C(CC3(C)C)C3(C1)OC(=O)CC(C(=O)O)C3CC2 (stereo not given)", "measuredMetric": "red/green cell ratio (normalised)", "measuredValue": "0.86 (inactive)"}
{"molecule": "O=c1c(O)c(-c2ccc(O)c(O)c2)oc2c(O[C@@H]3O[C@H](CO)[C@H](O)[C@@H](O)[C@H]3O)c(O)cc(O)c12", "measuredMetric": "red/green cell ratio (normalised)", "measuredValue": "0.95 (inactive)"}
{"molecule": "CCCC1=CC(=O)[C@H](O)[C@H]1O", "measuredMetric": "red/green cell ratio (normalised)", "measuredValue": "1.01 (inactive)"}

Sourced from PubChem BioAssay
